Tested On: UniProt P08684
Sequence (P08684 whole entry): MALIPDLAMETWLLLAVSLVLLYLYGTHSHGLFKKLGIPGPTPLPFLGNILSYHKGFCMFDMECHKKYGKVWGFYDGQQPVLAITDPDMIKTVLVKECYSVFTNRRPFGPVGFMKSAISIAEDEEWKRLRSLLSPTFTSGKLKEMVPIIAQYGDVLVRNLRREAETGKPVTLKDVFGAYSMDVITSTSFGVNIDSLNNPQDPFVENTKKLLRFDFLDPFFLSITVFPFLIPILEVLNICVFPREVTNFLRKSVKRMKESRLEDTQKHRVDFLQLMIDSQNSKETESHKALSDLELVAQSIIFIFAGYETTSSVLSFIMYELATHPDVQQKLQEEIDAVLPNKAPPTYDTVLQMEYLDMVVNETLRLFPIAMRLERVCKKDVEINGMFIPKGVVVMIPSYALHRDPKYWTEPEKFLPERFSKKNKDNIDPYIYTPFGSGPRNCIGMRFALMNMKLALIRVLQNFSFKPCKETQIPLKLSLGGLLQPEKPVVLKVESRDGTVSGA
Protocol Text: Determination of compound Kiapp against recombinant CYP3A4 enzyme (BFC fluorescent substrate)
Type: biochemical
Applied Conditions: Baculo. enzyme preparation, read-out: Kiapp (BFC, Baculo.)
Below: a set of entries, each annotated with reported pKi.
Note on units: pKi is unitless, being -log10 of a concentration expressed in mol/L.

The cases that follow already have their pKi on record.
# Molecule, pKi
records = [
    ("CN(Cc1ccccc1)C(=O)c1ccccc1S(=O)(=O)Nc1cccnc1 [Example 55]", 6.41),
    ("CC(C)CCNC(=O)c1ccccc1S(=O)(=O)N(C)c1cccnc1 [Example 323]", 6.68),
    ("Cc1cncc(NS(=O)(=O)c2ccccc2C(=O)NCc2ccc(F)c(C)c2)c1 [Example 156]", 7.08),
]

We now examine a further molecule.
// query Check the records and state pKi for Cc1ccc(CNC(=O)c2ccccc2S(=O)(=O)Nc2cnccc2C)cc1F [Example 166]
// result 6.71
